Target: BCL2 D103Y (Homo sapiens, UniProt P10415, D103Y)
Test: TR-FRET competitive binding assay, BCL2 D103Y
Details: Ki determined from IC50, read-out: TR_FRET EKI_Bcl2 D103Y
OBSERVATION TYPE: Ki (pM)

Some solved entries appear below for comparison.
Cc1c(N(C(=O)c2cc(-c3cc4c(cc3C(=O)N3Cc5ccccc5C[C@H]3CN3CCC[C@H](C)C3)CN(C(=O)Cc3ccc(OCCN5CCOCC5)cc3)CC4)n(C)c2C)c2ccc(O)cc2)cc(C#N)n1C	380
Cc1c(C(=O)N(c2ccccc2)c2cccc(C#N)c2)cc(-c2cc3c(cc2C(=O)N2Cc4ccccc4C[C@H]2C)CN(C(=O)Cc2ccc(OCCN4CCOCC4)cc2)CC3)n1C	80
COc1ncc(N(C(=O)c2cc(-c3cc4c(cc3C(=O)N3Cc5ccccc5C[C@H]3C)CN(C(=O)Cc3ccc(OCCN5CCOCC5)cc3F)CC4)n(C)c2C)c2ccc(O)cc2)cc1F	590
Cc1c(C(=O)N(c2ccccc2)c2cnn(C(F)F)c2)cc(-c2cc3c(cc2C(=O)N2Cc4ccccc4C[C@H]2CF)CN(C(=O)Cc2ccc(OCCN4CCOCC4)cc2)CC3)n1C	180
Cc1c(N(C(=O)c2cc(-c3cc4c(cc3C(=O)N3Cc5ccccc5C[C@H]3C)CN(C(=O)C(F)(F)c3ccccc3)CC4)n(C)c2C)c2ccc(O)cc2)cc(C#N)n1C	1230

A: Cc1c(N(C(=O)c2cc(-c3cc4c(cc3C(=O)N3Cc5ccccc5C[C@H]3C)CN(C(=O)Cc3ccc(OCCN5CCOCC5)cc3)CC4)n(C)c2C)c2ccc(F)cc2)cc(C#N)n1C
B: COc1ccc(N(C(=O)c2cc(-c3cc4c(cc3C(=O)N3Cc5ccccc5C[C@H]3C)CN(C(=O)Cc3ccc(OCCN5CCOCC5)cc3)CC4)n(C)c2C)c2ccccc2)cc1C#N
Prompt line: Quick one: lower Ki, A or B ? Returns: label corresponding to the selected item.
Response line: A
(A: 130 pM, B: 300 pM)

====

Tested on: BCL2 G101V
Experiment: TR-FRET competitive binding assay, BCL2 G101V
Design: species or system human
Conditions: ratio Ki BCL2 G101V / Ki BCL2 WT
OBSERVATION TYPE: TR_FRET EKI G101V/WT selectivty ratio

Cc1c(C(=O)N(c2ccc(O)cc2)c2cc(C#N)n(C(F)F)c2C)cc(-c2cc3c(cc2C(=O)N2Cc4ccccc4C[C@H]2CN2CCCCC2)CN(C(=O)Cc2ccc(OCCN4CCOCC4)cc2)CC3)n1C [Example 77]	5.1
Cc1c(N(C(=O)c2cc(-c3cc4c(cc3C(=O)N3Cc5ccccc5C[C@H]3CN3CCCCC3)CN(C(=O)Cc3ccc(OCCN(C)C5COC5)cc3)CC4)n(C)c2C)c2ccc(O)cc2)cc(C#N)n1C [Example 106]	6.2
Cc1c(C(=O)N(c2ccc(O)cc2)c2cc(C#N)n(C3CC3)c2C)cc(-c2cc3c(cc2C(=O)N2Cc4ccccc4C[C@H]2C)CN(C(=O)Cc2ccc(OCCN4CCOCC4)cc2)CC3)n1C [Example 71]	8.0
Cc1c(N(C(=O)c2cc(-c3cc4c(cc3C(=O)N3Cc5ccccc5C[C@H]3CN3CCC[C@@H](C)C3)CN(C(=O)Cc3ccc(OCCN5CCOCC5)cc3F)CC4)n(C)c2C)c2ccc(O)cc2)cc(C#N)n1C [Example 124]	5.8
COc1ncc(N(C(=O)c2cc(-c3cc4c(cc3C(=O)N3Cc5ccccc5C[C@H]3C)CN(C(=O)Cc3ccc(OCCN(C)C)cc3F)CC4)n(C)c2C)c2ccccc2)cc1F [Example 219]	89.8
Cc1c(C(=O)N(c2ccc(O)cc2)c2cc(C#N)n(CCN(C)C3CC3)c2C)cc(-c2cc3c(cc2C(=O)N2Cc4ccccc4C[C@H]2C)CN(C(=O)Cc2ccccc2)CC3)n1C [Example 22]	5.0
Cc1c(N(C(=O)c2cc(-c3cc4c(cc3C(=O)N3Cc5ccccc5C[C@H]3C)CN(C(=O)Cc3ccc(Oc5ccccc5)cc3)CC4)n(C)c2C)c2ccc(O)cc2)cc(C#N)n1C [Example 10]	2.6
Cc1c(C(=O)N(c2ccc(O)cc2)c2cc(C#N)n(C(F)F)c2C)cc(-c2cc3c(cc2C(=O)N2Cc4ccccc4C[C@H]2CN2CCCCC2)CN(C(=O)Cc2ccc(OCCN(C)C4CC4)cc2)CC3)n1C [Example 163]	5.3

P: Cc1c(N(C(=O)c2cc(-c3cc4c(cc3C(=O)N3Cc5ccccc5C[C@H]3CN3CCCC3)CN(C(=O)Cc3ccc(OCCN(C)C5CC5)cc3F)CC4)n(C)c2C)c2ccc(O)cc2)cc(C#N)n1C [Example 101]
Q: Cc1c(N(C(=O)c2cc(-c3cc4c(cc3C(=O)N3Cc5ccccc5C[C@H]3C)CN(C(=O)Cc3ccc(OCCN5CCN(CC(F)(F)F)CC5)cc3)CC4)n(C)c2C)c2ccc(O)cc2)cc(C#N)n1C [Example 32]
R: Cc1c(C(=O)N(c2ccccc2)c2cnn(C)c2)cc(-c2cc3c(cc2C(=O)N2Cc4ccccc4C[C@H]2C)CN(C(=O)Cc2ccc(OCCN4CCOCC4)cc2F)CC3)n1C [Example 197]
Prompt line: Parameters: sort_field (TR_FRET EKI G101V/WT selectivty ratio), sort_dir (desc). Please reply with the labels ordered as requested. Many thanks.
Response line: R, P, Q
(R: 63.9, P: 4.7, Q: 2.6)
